- target.or.system: Plasmodium falciparum protein kinase 6 (PK6, PF3D7_1337100) (UniProt Q8IDW1)
- Sequence (Q8IDW1 1-305): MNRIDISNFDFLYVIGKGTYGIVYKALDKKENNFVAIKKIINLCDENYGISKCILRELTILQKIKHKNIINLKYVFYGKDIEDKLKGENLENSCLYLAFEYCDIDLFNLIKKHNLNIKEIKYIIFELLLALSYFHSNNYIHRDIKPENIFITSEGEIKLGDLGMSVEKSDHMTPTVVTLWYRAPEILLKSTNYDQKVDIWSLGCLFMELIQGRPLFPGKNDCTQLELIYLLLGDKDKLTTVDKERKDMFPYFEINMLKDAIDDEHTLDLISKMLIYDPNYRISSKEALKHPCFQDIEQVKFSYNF
- assay.comment: PfPK6 kinase inhibitors, biochemical, TCAMS library (AID 1159586)
- condition.context: recombinant PfPK6, Kinase-Glo ATP depletion luminescence
Measured potencies and affinities stand elsewhere. Activity calls are given as the source filed them. The rule behind the calls is not given here.

# compound, target.or.system, outcome
rows = [
    ("Cc1ccc(CCOCCCCCNCC(O)c2cc(Cl)c(N)c(Cl)c2)cc1 (stereo not given)", "Plasmodium falciparum protein kinase 6 (PK6, PF3D7_1337100) (UniProt Q8IDW1)", "inactive"),
    ("CCOc1ccccc1NC(=O)C(Sc1nc(C)cc(C)c1C#N)c1ccccc1 (stereo not given)", "Plasmodium falciparum protein kinase 6 (PK6, PF3D7_1337100) (UniProt Q8IDW1)", "inactive"),
    ("CNc1ccc(CNCc2cccc(-c3ccc(-c4nc5c(C)cccc5[nH]4)cc3)c2)cc1", "Plasmodium falciparum protein kinase 6 (PK6, PF3D7_1337100) (UniProt Q8IDW1)", "inactive"),
    ("CC(=O)Oc1cc(C(=O)Nc2ccc(Cl)cc2)cc2ccccc12", "Plasmodium falciparum protein kinase 6 (PK6, PF3D7_1337100) (UniProt Q8IDW1)", "inactive"),
    ("O=C(/C=C/c1ccc(Cl)c(Cl)c1)NCCCCCN1CCC(NC(=O)NCCc2ccccc2)CC1", "Plasmodium falciparum protein kinase 6 (PK6, PF3D7_1337100) (UniProt Q8IDW1)", "inactive"),
]
